Assay: self-splicing fitness, log relative to wild type (ln ratio); higher = more splicing; Tetrahymena group I intron in knt gene, E. coli kanamycin selection, DiMSum; sequences stand for … in CUCUCU…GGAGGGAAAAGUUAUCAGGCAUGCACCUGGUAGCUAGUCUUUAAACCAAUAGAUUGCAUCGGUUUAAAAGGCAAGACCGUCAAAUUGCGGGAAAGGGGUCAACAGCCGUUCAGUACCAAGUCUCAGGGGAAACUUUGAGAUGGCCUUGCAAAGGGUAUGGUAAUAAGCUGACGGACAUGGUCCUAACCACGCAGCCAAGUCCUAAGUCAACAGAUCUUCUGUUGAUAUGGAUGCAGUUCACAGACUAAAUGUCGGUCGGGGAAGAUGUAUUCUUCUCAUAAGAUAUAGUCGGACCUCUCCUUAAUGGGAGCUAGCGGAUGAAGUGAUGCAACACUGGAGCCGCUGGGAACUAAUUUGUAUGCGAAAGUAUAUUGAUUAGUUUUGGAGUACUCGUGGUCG;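 also: selection with 25 µg/mL kanamycin versus none on LB agar overnight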
Details: 30 °C
Here the recorded self-splicing fitness (ln) is given for each entry.
assay.readout: self-splicing fitness (ln)

[[record]]
entry_sequence = "CAUCAGCAAUAUUACGCUAU"
measurement = -2.87

[[record]]
entry_sequence = "GAAGAGCAAUAUUACGAAAG"
measurement = -4.13

[[record]]
entry_sequence = "AUCCAGCAAUAUUACGUAAC"
measurement = -1.82

[[record]]
entry_sequence = "AUACAGCAAUAUUACGAUUA"
measurement = -1.18

[[record]]
entry_sequence = "ACUCAGCAAUAUUACGUCAU"
measurement = -1.29

[[record]]
entry_sequence = "GAAGAGCAAUAUUACGUAGU"
measurement = -2.69

[[record]]
entry_sequence = "AUCCAGCAAUAUUACGUCAG"
measurement = -2.99

[[record]]
entry_sequence = "CUGUAGCAAUAUUACGGCUC"
measurement = -2.55

[[record]]
entry_sequence = "AGAAAGCAAUAUUACGUGUU"
measurement = -3.31

[[record]]
entry_sequence = "UGAAAGCAAUAUUACGACCU"
measurement = -0.0194

[[record]]
entry_sequence = "CCCAAGCAAUAUUACGCAAU"
measurement = -4.46

[[record]]
entry_sequence = "UACUAGCAAUAUUACGUACG"
measurement = -2.76

[[record]]
entry_sequence = "CGGUAGCAAUAUUACGAUUA"
measurement = -2.71

[[record]]
entry_sequence = "CACUAGCAAUAUUACGGAUG"
measurement = -2.42

[[record]]
entry_sequence = "UUGCAGCAAUAUUACGAUGA"
measurement = -0.402

[[record]]
entry_sequence = "CCAUAGCAAUAUUACGCUCC"
measurement = -2.97


* * *

Assay: self-splicing fitness, log relative to wild type (ln ratio); higher = more splicing; Tetrahymena group I intron in knt gene, E. coli kanamycin selection, DiMSum; sequences stand for … in CUCUCU…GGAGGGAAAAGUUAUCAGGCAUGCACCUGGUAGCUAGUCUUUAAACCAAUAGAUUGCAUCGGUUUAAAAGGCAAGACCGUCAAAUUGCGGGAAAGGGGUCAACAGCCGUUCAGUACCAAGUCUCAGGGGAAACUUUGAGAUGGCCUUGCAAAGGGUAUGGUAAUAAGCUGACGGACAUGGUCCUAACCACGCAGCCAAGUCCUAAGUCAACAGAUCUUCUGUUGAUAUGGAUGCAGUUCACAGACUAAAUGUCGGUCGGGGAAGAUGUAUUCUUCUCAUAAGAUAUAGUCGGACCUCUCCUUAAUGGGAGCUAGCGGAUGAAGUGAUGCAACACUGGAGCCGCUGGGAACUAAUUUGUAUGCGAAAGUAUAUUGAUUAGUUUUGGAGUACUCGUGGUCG
Settings: 37 °C
Classification field: True = self-splicing fitness (ln) at or over -2; False = self-splicing fitness (ln) under -2.

[[record]]
entry_sequence = "GACUAGCAAUAUUACGCAUA"
label_class = "True"

[[record]]
entry_sequence = "UCCCAGCAAUAUUACGACCC"
label_class = "False"

[[record]]
entry_sequence = "UGACAGCAAUAUUACGUGAA"
label_class = "True"

[[record]]
entry_sequence = "CGUAAGCAAUAUUACGGCUG"
label_class = "True"

[[record]]
entry_sequence = "GGUAAGCAAUAUUACGUGAG"
label_class = "True"

[[record]]
entry_sequence = "AUCGAGCAAUAUUACGUGGC"
label_class = "False"

[[record]]
entry_sequence = "AUCCAGCAAUAUUACGUCCC"
label_class = "True"

[[record]]
entry_sequence = "UGGUAGCAAUAUUACGAUGG"
label_class = "True"

[[record]]
entry_sequence = "UGACAGCAAUAUUACGCGGA"
label_class = "True"

[[record]]
entry_sequence = "CGCGAGCAAUAUUACGCCCU"
label_class = "False"

[[record]]
entry_sequence = "CCCCAGCAAUAUUACGUUAA"
label_class = "False"

[[record]]
entry_sequence = "CGUGAGCAAUAUUACGCUGU"
label_class = "False"

[[record]]
entry_sequence = "CGACAGCAAUAUUACGUUAA"
label_class = "False"

[[record]]
entry_sequence = "UUCGAGCAAUAUUACGCGGA"
label_class = "False"

[[record]]
entry_sequence = "AAUAAGCAAUAUUACGGGUC"
label_class = "False"

[[record]]
entry_sequence = "AAACAGCAAUAUUACGAGCG"
label_class = "True"

[[record]]
entry_sequence = "CUGAAGCAAUAUUACGGACA"
label_class = "False"

[[record]]
entry_sequence = "AGGGAGCAAUAUUACGAUCG"
label_class = "False"

[[record]]
entry_sequence = "CCCAAGCAAUAUUACGUAAC"
label_class = "False"

[[record]]
entry_sequence = "CCCCAGCAAUAUUACGGGCC"
label_class = "True"

[[record]]
entry_sequence = "CUAGAGCAAUAUUACGUGCG"
label_class = "True"

[[record]]
entry_sequence = "UUUGAGCAAUAUUACGAUGU"
label_class = "False"

[[record]]
entry_sequence = "GCUGAGCAAUAUUACGUGGG"
label_class = "False"

[[record]]
entry_sequence = "AAGAAGCAAUAUUACGUUCG"
label_class = "True"

[[record]]
entry_sequence = "GCAUAGCAAUAUUACGUGCC"
label_class = "True"

[[record]]
entry_sequence = "CGUUAGCAAUAUUACGGAUG"
label_class = "True"

[[record]]
entry_sequence = "ACCAAGCAAUAUUACGUUAG"
label_class = "False"

[[record]]
entry_sequence = "AACAAGCAAUAUUACGUCUG"
label_class = "True"

[[record]]
entry_sequence = "GUCCAGCAAUAUUACGAAGU"
label_class = "True"

[[record]]
entry_sequence = "AUCGAGCAAUAUUACGGGAA"
label_class = "False"

[[record]]
entry_sequence = "CUAGAGCAAUAUUACGCCAG"
label_class = "True"

[[record]]
entry_sequence = "AUGGAGCAAUAUUACGGACU"
label_class = "True"

[[record]]
entry_sequence = "AGGCAGCAAUAUUACGAGCC"
label_class = "True"

[[record]]
entry_sequence = "AAUGAGCAAUAUUACGGCGU"
label_class = "True"


* * *

Test: self-splicing fitness, log relative to wild type (ln ratio); higher = more splicing; Tetrahymena group I intron in knt gene, E. coli kanamycin selection, DiMSum; sequences stand for … in CUCUCU…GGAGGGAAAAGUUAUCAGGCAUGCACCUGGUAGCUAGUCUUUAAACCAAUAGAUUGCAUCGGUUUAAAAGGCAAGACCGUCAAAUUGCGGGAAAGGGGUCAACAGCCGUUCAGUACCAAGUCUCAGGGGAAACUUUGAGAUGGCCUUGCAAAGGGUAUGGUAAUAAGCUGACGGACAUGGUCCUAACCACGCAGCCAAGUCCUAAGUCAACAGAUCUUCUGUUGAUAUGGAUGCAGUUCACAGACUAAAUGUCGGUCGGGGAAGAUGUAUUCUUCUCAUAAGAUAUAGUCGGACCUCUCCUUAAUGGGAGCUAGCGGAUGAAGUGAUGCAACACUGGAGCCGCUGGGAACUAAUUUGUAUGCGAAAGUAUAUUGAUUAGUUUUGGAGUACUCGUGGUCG
Conditions: 37 °C
assay.readout: self-splicing fitness (ln)

[[record]]
entry_sequence = "GGGGAGCAAUAUUACGCAGA"
assay_readout = "self-splicing fitness (ln)"
measurement = -2.07

[[record]]
entry_sequence = "AACAAGCAAUAUUACGUUCC"
assay_readout = "self-splicing fitness (ln)"
measurement = -0.835

[[record]]
entry_sequence = "AAAAAGCAAUAUUACGAACC"
assay_readout = "self-splicing fitness (ln)"
measurement = -0.312

[[record]]
entry_sequence = "AGCGAGCAAUAUUACGCAAA"
assay_readout = "self-splicing fitness (ln)"
measurement = -2.52

[[record]]
entry_sequence = "CACUAGCAAUAUUACGUCCA"
assay_readout = "self-splicing fitness (ln)"
measurement = -1.31

[[record]]
entry_sequence = "UACGAGCAAUAUUACGGUGA"
assay_readout = "self-splicing fitness (ln)"
measurement = -1.21

[[record]]
entry_sequence = "UGUCAGCAAUAUUACGCUUA"
assay_readout = "self-splicing fitness (ln)"
measurement = 0.408

[[record]]
entry_sequence = "CGGGAGCAAUAUUACGGCAG"
assay_readout = "self-splicing fitness (ln)"
measurement = -1.12

[[record]]
entry_sequence = "AUCGAGCAAUAUUACGUGUA"
assay_readout = "self-splicing fitness (ln)"
measurement = -2.11

[[record]]
entry_sequence = "CGACAGCAAUAUUACGACAC"
assay_readout = "self-splicing fitness (ln)"
measurement = -1.97

[[record]]
entry_sequence = "AGCAAGCAAUAUUACGUGAG"
assay_readout = "self-splicing fitness (ln)"
measurement = -1.44

[[record]]
entry_sequence = "GGUAAGCAAUAUUACGAUCG"
assay_readout = "self-splicing fitness (ln)"
measurement = 0.451

[[record]]
entry_sequence = "CAGAAGCAAUAUUACGUUUC"
assay_readout = "self-splicing fitness (ln)"
measurement = -2.12

[[record]]
entry_sequence = "GUUCAGCAAUAUUACGCACA"
assay_readout = "self-splicing fitness (ln)"
measurement = -1.71

[[record]]
entry_sequence = "AUGGAGCAAUAUUACGCUUA"
assay_readout = "self-splicing fitness (ln)"
measurement = -0.194

[[record]]
entry_sequence = "UUAGAGCAAUAUUACGCCUU"
assay_readout = "self-splicing fitness (ln)"
measurement = -1.08

